The entries below pair compounds with IC50 values for Cytochrome P450 2C19 (Homo sapiens, UniProt P33261), as found in several publications.

Recorded IC50, per entry:
> print(dat)
                                 mol.smiles  readout.value
1  O=c1cc(-c2ccc(O)c(-c3c(-c4ccc(O)cc4)oc4cc(O)cc(O)c4c3=O)c2)oc2cc(O)cc(O)c12           5 µM
2  COc1ccc(CNc2nc(N3CCC[C@H]3CO)ncc2C(=O)NCc2ccccn2)cc1Cl       > 100 µM
3  COc1ccc(C(=C2C=CC(=O)C=C2)c2c(-c3ccc(O)cc3)ccc(CO)c2C#Cc2ccc(O)cc2)cc1        16.1 µM

# batch size: 3; output IC50 per entry
1. C#Cc1cn([C@@H]2S[C@H](CO)[C@@H](O)[C@H]2O)c2ncnc(N)c12
2. COC(=O)COc1cccc(C(C)=NOCc2ccc([N+](=O)[O-])cc2)c1
3. N#Cc1cccc(-c2noc(-c3cccnc3)n2)c1

[A]
1. > 20 µM
2. > 50 µM
3. > 30 µM

# batch size: 2; output IC50 per entry
1. O=S1(=O)COc2cc(-c3ccc(OCC4CCN(c5ncc(Cl)cn5)CC4)nc3)ccc21
2. O=c1cc(-c2ccc(O)c(-c3c(O)cc4oc(-c5ccc(O)cc5)cc(=O)c4c3O)c2)oc2cc(O)cc(O)c12

[A]
1. > 10 µM
2. 6.4 µM
